- Test system: Escherichia coli NCTC 8196
- PROCEDURE DETAILS: Determination of the minimum inhibition concentration (MIC value) in microtitre plates
- Format: cell-based
- Set-up: unit not given here
- TEST CONTEXT: CASO broth, 37° C., 48 hours, optical density at 620 nm; MIC = <20% growth vs growth control
MEASUREMENT TYPE: MIC Escherichia coli

Past entries and their recorded results:
                      compound      measurement_type  reported_result
0  C[Si](C)(C)CCCOc1ccc(CO)cc1  MIC Escherichia coli               60
1          CCCCCCOc1ccc(CO)cc1  MIC Escherichia coli               60
2        CCCCCCOc1ccc(OC)cc1CO  MIC Escherichia coli               60

I. CCCCCC(C)Oc1cccc(CO)c1 (stereo not shown)
II. COc1ccc(OCCOc2ccccc2)c(CO)c1
III. CCCCCCCCOc1ccc(CO)cc1OC
In this exercise, place the 3 compounds in ascending sequence of their recorded MIC Escherichia coli. Answer format: list of labels, ordered as asked.
III, II, I
(III: 30, II: 60, I: 120)

---

- Test system: Escherichia coli NCTC 8196
- PROCEDURE DETAILS: Determination of the minimum inhibition concentration (MIC value) in microtitre plates
- Assay type: cell-based
- Parameters: unit not given here
- TEST CONTEXT: CASO broth, 37° C., 48 hours, optical density at 620 nm; MIC = <20% growth vs growth control
- Procedure: Determination of the Minimum Inhibition Concentration (MIC Value) in Microtitre Plates Nutrient Medium: Casein-soy flour-peptone broth for the preparation of the precultures of the test bacteria and yeast. […] After incubation, the growth is determined by reference to the clouding of the test mixtures (optical density) at 620 nm in a microplate reader. […]
MEASUREMENT TYPE: MIC Escherichia coli

Past entries and their recorded results:
In [3]: df
Out[3]:
                                   compound         experimental_system  reported_result
0  CCCCCCCCCCCCOc1ccc(OCCCCCCCCCCCC)c(CO)c1  Escherichia coli NCTC 8196              120
1                    CCC(CC)Oc1ccc(OC)cc1CO  Escherichia coli NCTC 8196               60
2                 COc1ccc(OC2CCCCC2)c(CO)c1  Escherichia coli NCTC 8196               60
3          CCCCCCCCOc1ccc(OCCCCCCCC)c(CO)c1  Escherichia coli NCTC 8196               60
4             COc1ccc(OC[Si](C)(C)C)c(CO)c1  Escherichia coli NCTC 8196               60

a. C[Si](C)(C)CCCOc1cccc(CO)c1
b. CCCCCCCCOc1cccc(CO)c1
c. COc1ccc(OCc2ccccc2)c(CO)c1
In this exercise, place the 3 compounds in ascending sequence of their recorded MIC Escherichia coli. Answer format: list of labels, ordered as asked.
b, a, c
(b: 30, a: 60, c: 120)

a. CCCCCCCCOc1ccc(CO)cc1OCCCCCCCC
b. CCCCCCCCOc1cccc(OC)c1CO
c. CCCCCCCCOc1ccc(OC)cc1CO
In this exercise, place the 3 compounds in ascending sequence of their recorded MIC Escherichia coli. Answer format: list of labels, ordered as asked.
b, c, a

P. COCCOCCOc1ccc(CO)cc1
Q. CCCCCCCCOc1ccc(CO)cc1
Between P and Q , which one shows the smaller MIC Escherichia coli number? // caller expects the label of the chosen entry
Q
(Q: 15, P: 60)

Where these numbers come from: patent US20050124579A1
